system: PC-3 prostate; assay: NCI tumour cell line growth inhibition, 48 h; in the data active means GI50 below about 0.43 µM; inactive means the rest
Respond using exactly one of the listed classes: active, inactive

[Q] Look up the recorded call for O=C(c1ccco1)c1c(C(F)(F)F)n([O-])c2cc(C(F)(F)F)ccc2[n+]1=O in this test.
[A] active

[Q] // param item: CC(=O)O[C@H]1C(=O)[C@@]2(C)[C@H]([C@H](OC(=O)c3ccccc3)[C@]3(O)C[C@H](OC(=O)[C@H](OC(=O)OC[C@H]4COC(C)(C)O4)[C@@H](NC(=O)c4ccccc4)c4ccccc4)C(C)=C1C3(C)C)[C@]1(OC(C)=O)CO[C@@H]1C[C@@H]2O ; yields the recorded call
[A] active

[Q] Recorded test outcome, item C=C1SC(=Nc2ccccc2Cl)N(C(=O)c2sc3ccccc3c2Cl)C12CCCCC2
[A] inactive

* * *

tested on: SW-620 colon; assay: NCI tumour cell line growth inhibition, 48 h
endpointName: GI50

[Q] Return reported GI50. Input compound: Cc1cc(OCCOCCC(F)(F)P(=O)(O)O)ccc1CCc1cnc2c(N)nc3cc(CCC(=O)O)ccc3c2c1
[A] > 100 µM

[Q] Provide only the value of recorded GI50 for COC(=O)c1c2c(c(C)[n+]([O-])c1C)C(=O)C=C(NCc1cccc(Cl)c1)C2=O
[A] 0.244 µM

[Q] State its GI50 for this compound: O=c1oc2cc(OC/C(=N/O)c3ccc(F)cc3)ccc2c2ccccc12
[A] 23.2 µM

[Q] Name the recorded GI50 of the item C=C1C(=O)O[C@H]2[C@H]1CC/C(COC(=O)OC/C1=C/CC[C@@]3(C)O[C@H]3[C@H]3OC(=O)[C@@H](CN(C)C)[C@@H]3CC1)=C\CC[C@@]1(C)O[C@@H]21 in your answer.
[A] 0.445 µM

[Q] Look up and report measured GI50 for this entry: C=C1C(=O)O[C@H]2[C@H]1CC/C(COC(=O)CCCc1c[nH]c3ccccc13)=C\CC[C@@]1(C)O[C@@H]21
[A] 1.84 µM

[Q] Kindly indicate its recorded GI50. Item: O=C(/C=C1\C(=O)N(Cc2ccccc2)c2ccccc21)c1ccc(OCCN2CCCCC2)cc1
[A] 1.7 µM

[Q] Return the recorded GI50 value; entry: C[C@]12CC[C@H]3[C@@H](CC4SC(N)=NC45C/C(=N/NC(N)=O)CC[C@]35C)[C@@H]1CCC2=O (stereo partly drawn)
[A] 1.69 µM

[Q] Assign GI50 to the following record: O=C(Nc1ccc(F)cc1)Nc1ccc(Br)c(C(F)(F)F)c1
[A] 3.22 µM

* * *

test system: SF-268 CNS; experiment: NCI tumour cell line growth inhibition, 48 h
endpointName: GI50

[Q] Retrieve GI50 measured for COc1ccc(/C=C2\SC(=Nc3ccccc3)NC2=O)cc1 and print it.
[A] 8180 nM

[Q] # return recorded GI50 for input Cn1nc(C(F)(F)F)c(-c2cc(C(F)(F)F)cc(C(F)(F)F)c2)c1-c1ccc(OCc2ccc(Cl)cc2)cc1O
[A] 2650 nM

[Q] Fill in reported GI50 for this entry: CCCCCCCCCCCCCCCCNCCC[C@@H](C)[C@H]1CC[C@H]2[C@@H]3[C@H](OCCCN)C[C@@H]4C[C@H](OCCCN)CC[C@]4(C)[C@H]3C[C@H](OCCCN)[C@]12C
[A] 2170 nM

[Q] For the compound COc1ccc(NC(=O)c2sc3nc(C)c(C(=O)/C=C/c4cccc(OC)c4)cc3c2N)cc1 , give its reported GI50.
[A] 2070 nM

* * *

system: IGROV1 ovarian; assay: NCI tumour cell line growth inhibition, 48 h
Field: TGI. Provide a value for each of the compounds that follow.

[Q] Report TGI under test system IGROV1 ovarian for O=c1[nH]nc(Cc2ccccc2)n1/N=C/c1cccnc1 .
[A] > 100 µM

[Q] Provide IGROV1 ovarian TGI reading for C1CN(P2(N3CC3)=NP(N3CC3)(N3CC3)=NP(N3CC3)(N3CC3)=N2)CCO1 (stereo not given) .
[A] > 100 µM

[Q] Give the observed TGI of C[n+]1c2ccccc2nc2ccccc21 for IGROV1 ovarian.
[A] 14 µM

[Q] Name the value of TGI reported for COC(=O)[C@]1(c2cc3ccccc3[nH]2)CC2CN(C(=O)OCc3ccccc3)C1CC2=O (stereo not given in full) when tested on IGROV1 ovarian.
[A] > 100 µM

[Q] Report its TGI with IGROV1 ovarian as the test system: NC(=O)CC(N)C(=O)NC(Cc1ccccc1)C(=O)NC(Cc1ccccc1)NC(=O)C(Cc1c[nH]c2ccccc12)C(=O)O (stereo not given)
[A] > 100 µM

[Q] Report value only: TGI, IGROV1 ovarian, COc1ccc2c(c1OC)C(C(Cl)(Cl)Cl)N1CCc3cc4c(cc3C1=C2)OCO4 (stereo not given)
[A] 98.2 µM

[Q] State the measured TGI (IGROV1 ovarian) of CCCCCCCCP(=O)(O)OP(=O)(O)OCC1OC(n2ccc(N)nc2=O)C(O)C1O (stereo not given)
[A] > 100 µM

[Q] Using IGROV1 ovarian as the test system, report measured TGI of CCOC(=O)C12C(C(=O)OC)=C(C)N(NC(=O)Nc3ccccc3)C1(N)N(NC(=O)Nc1ccccc1)C(C)=C2C(=O)OC (stereo not given) .
[A] > 100 µM

[Q] # lookup: IGROV1 ovarian TGI, key = CC(C)(C)NC(=O)/C(=C\Sc1ccccc1)c1ccccc1
[A] > 100 µM

[Q] Give IGROV1 ovarian TGI for the following compound: O=C1CC(=O)NC(=NN2C(=O)CSC2C(=O)c2ccco2)N1 (stereo not given)
[A] > 100 µM

* * *

system: SR leukemia; test: NCI tumour cell line growth inhibition, 48 h
endpointName: TGI

[Q] Entry C[n+]1c2ccccc2nc2ccccc21 needs its TGI filled in; supply it.
[A] > 28.2 µM

[Q] Give TGI for C1CN(P2(N3CC3)=NP(N3CC3)(N3CC3)=NP(N3CC3)(N3CC3)=N2)CCO1 (stereo not given)
[A] > 47.4 µM

[Q] Check the records and state TGI for CCSc1nc(=S)n(-c2ccccc2)c(C)c1C(C)=O
[A] > 100 µM

[Q] Supply measured TGI of COc1cc(NS(C)(=O)=O)ccc1NCc1c2ccccc2nc2ccccc12 in your reply.
[A] 62.9 µM

[Q] Note TGI for the molecule shown: C=CCC1(C(=O)OC(C)(C)C)C(OC)=C(C(=O)OC(C)(C)C)C2C1C(C(=O)OC(C)(C)C)=C(OC)C2(CC=C)C(=O)OC(C)(C)C (stereo not given)
[A] > 100 µM

[Q] Tell me TGI reported for C=C1SC(=Nc2ccccc2Cl)N(C(=O)c2sc3ccccc3c2Cl)C12CCCCC2
[A] > 100 µM

[Q] Tell me its TGI given COC1=C(C)C(=O)C2=C(C1=O)C1C3CC4=C(C(=O)C(OC)=C(C)C4=O)C(CNC(=O)C(C)O)N3C(C#N)C(C2)N1C (stereo not given) as the entry.
[A] > 100 µM

[Q] Provide one value: measured TGI of O=C(/C=C1\C(=O)N(Cc2ccccc2)c2ccccc21)c1ccc(OCCN2CCCCC2)cc1
[A] 9.55 µM

[Q] Kindly indicate its recorded TGI. Item: COC(=O)C1=C(C(=O)OC)C(N(C)C)C(C(=O)OC)=C(C(=O)OC)S1
[A] > 100 µM

[Q] Provide one value: measured TGI of c1ccc(Nc2nn3c(CCCCCCCCc4nnc5sc(Nc6ccccc6)nn45)nnc3s2)cc1
[A] 38.3 µM

* * *

system: BT-549 breast; experiment: NCI tumour cell line growth inhibition, 48 h; in the data active = GI50 below about 0.43 µM; inactive = the rest
// allowed return values: YES = active, NO = inactive

[Q] Per the records of this test, what outcome belongs to Cn1nc(C(F)(F)F)c(-c2cc(C(F)(F)F)cc(C(F)(F)F)c2)c1-c1ccc(OCc2ccc(Cl)cc2)cc1O ?
[A] NO

[Q] Per the records of this test, what outcome belongs to CC(C)c1cccc(O)c(=O)c1 ?
[A] NO

[Q] Recorded test call requested for O=C(/C=C1\C(=O)N(Cc2ccccc2)c2ccccc21)c1ccc(OCCN2CCCCC2)cc1
[A] NO

[Q] Kindly provide the recorded test outcome for the following compound: Cc1nc2ccccn2c1NC(=O)NNC(=S)Nc1ccc(F)cc1
[A] NO

[Q] Entry Nc1nc2cc(CC[C@H]3C[C@@H](n4ccc5c(N)ncnc54)[C@H](O)[C@@H]3O)ccc2cc1Br : call = ?
[A] NO

[Q] Returns: the outcome recorded for C=C1SC(=Nc2ccccc2Cl)N(C(=O)c2sc3ccccc3c2Cl)C12CCCCC2 in this assay.
[A] NO

[Q] What was the test verdict on C=C1C(=O)O[C@H]2[C@H]1CC/C(COC(=O)CCCc1c[nH]c3ccccc13)=C\CC[C@@]1(C)O[C@@H]21 ?
[A] NO

[Q] # fetch the recorded call for O=CN1N=C(c2cccc(Nc3ccnc4cc(Cl)ccc34)c2)CC1c1ccccc1 (stereo not given) here
[A] YES

[Q] Please state the recorded outcome for this compound: COc1ccc(/C=C2\SC(=Nc3ccccc3)NC2=O)cc1
[A] NO

[Q] // outcome(item) with item = C=C1C(=O)O[C@H]2[C@H]1CC/C(COC(=O)OC/C1=C/CC[C@@]3(C)O[C@H]3[C@H]3OC(=O)[C@@H](CN(C)C)[C@@H]3CC1)=C\CC[C@@]1(C)O[C@@H]21
[A] NO
